Exercise: for every item that follows, state its recorded selectivity ratio.
test: Selectivity index, ratio of CC50 for human MT4 cells to EC50 for HIV1 3B; format: toxicity, cell-based; conditions: read-out: Ratio CC50/EC50

Before answering, review these 5 worked examples.
O=C(CSc1snnc1-c1ccc(Br)cc1Br)Nc1ccccc1Cl; > 2900
O=C(CSc1snnc1-c1ccc(Br)cc1Br)Nc1ccccc1[N+](=O)[O-]; > 5840
O=C(CSc1snnc1-c1ccc(Br)cc1Br)Nc1ccc(Cl)cc1; 11
Cc1ccc(NC(=O)CSc2snnc2-c2ccc(Br)cc2Br)cc1; 16
Cc1ccc2sc(NC(=O)CSc3snnc3-c3ccc(Br)cc3Br)nc2c1; < 1

For every item in the list below, what is its measured selectivity ratio?
1. O=C(CSc1snnc1-c1ccc(Br)cc1Br)Nc1nccs1
2. Cc1ccccc1NC(=O)CSc1snnc1-c1ccc(Br)cc1Br
3. O=C(CSc1snnc1-c1ccc(Br)cc1Br)Nc1ccccc1Br

// result
1. 19
2. 381
3. > 1790

Hi, could you look up selectivity ratio for each item in my list?
1. O=C(CSc1snnc1-c1ccc(Br)cc1Br)Nc1ccccc1
2. Cc1cccc(NC(=O)CSc2snnc2-c2ccc(Br)cc2Br)c1C
3. CC(=O)c1ccc(NC(=O)CSc2snnc2-c2ccc(Br)cc2Br)c(Br)c1
4. COC(=O)c1ccsc1NC(=O)CSc1snnc1-c1ccc(Br)cc1Br
5. O=C(CSc1snnc1-c1ccc(Br)cc1Br)Nc1ccccn1
6. Cc1ccc(NC(=O)CSc2snnc2-c2ccc(Br)cc2Br)c([N+](=O)[O-])c1

// result
1. 47
2. 166
3. > 3550
4. > 57
5. 36
6. > 2930

Record selectivity ratio per entry; entries follow.
1. O=C(CSc1snnc1-c1ccc(Br)cc1Br)Nc1cccnc1Cl
2. Cc1ccc(NC(=O)CSc2snnc2-c2ccc(Br)cc2Br)c(Br)c1
3. Cc1cccc(C)c1NC(=O)CSc1snnc1-c1ccc(Br)cc1Br

// result
1: > 6460; 2: > 958; 3: < 1

selectivity ratio in this record for O=C(CSc1snnc1-c1ccc(Br)cc1Br)Nc1ccccc1F : > 195

====

test system: Human immunodeficiency virus 1; test: Antiviral activity against HIV1 3B infected in human MT4 cells after 5 days by MTT assay; assay type: functional, organism-based; details: Human immunodeficiency virus 1, 3B, MT4, 120 h
I'd appreciate it if you could supply EC50 values for the items below.
Give bare numbers, in nM.

O=C(CSc1snnc1-c1ccc(Br)cc1Br)Nc1ccccc1[N+](=O)[O-]; 40
Cc1ccc(NC(=O)CSc2snnc2-c2ccc(Br)cc2Br)c([N+](=O)[O-])c1; 79
O=C(CSc1snnc1-c1ccc(Br)cc1Br)Nc1ccc(Cl)cc1; 2190
O=C(CSc1snnc1-c1ccc(Br)cc1Br)Nc1ccccn1; 1170
Cc1ccc(NC(=O)CSc2snnc2-c2ccc(Br)cc2Br)cc1; 1520
COC(=O)c1ccsc1NC(=O)CSc1snnc1-c1ccc(Br)cc1Br; 4010
O=C(CSc1snnc1-c1ccc(Br)cc1Br)Nc1ccccc1; 540
O=C(CSc1snnc1-c1ccc(Br)cc1Br)Nc1ccccc1Cl; 83
O=C(CSc1snnc1-c1ccc(Br)cc1Br)Nc1ccccc1F; 140
Cc1cccc(NC(=O)CSc2snnc2-c2ccc(Br)cc2Br)c1C; 1440

Hey, quick one: what's EC50 for each of these?
1. Cc1ccccc1NC(=O)CSc1snnc1-c1ccc(Br)cc1Br
2. O=C(CSc1snnc1-c1ccc(Br)cc1Br)Nc1ccccc1Br
3. Cc1ccc(NC(=O)CSc2snnc2-c2ccc(Br)cc2Br)c(Br)c1
4. O=C(CSc1snnc1-c1ccc(Br)cc1Br)Nc1nccs1
5. O=C(CSc1snnc1-c1ccc(Br)cc1Br)Nc1cccnc1Cl
6. CC(=O)c1ccc(NC(=O)CSc2snnc2-c2ccc(Br)cc2Br)c(Br)c1

// result
1. 520
2. 120
3. 220
4. 4530
5. 36.4
6. 58

====

assay: Selectivity index, ratio of CC50 for human MT4 cells to EC50 for HIV2 ROD; format: toxicity, cell-based; details: read-out: Ratio CC50/EC50
PROPERTY_MEASURED: selectivity ratio

// batch mode: one selectivity ratio value per listed entry
1. O=C(CSc1snnc1-c1ccc(Br)cc1Br)Nc1ccccc1
2. Cc1ccc(NC(=O)CSc2snnc2-c2ccc(Br)cc2Br)c(Br)c1

// result
1. < 1
2. ≥ 1

Working through the 7 compounds below one at a time, give selectivity ratio for each.
1. Cc1ccc(NC(=O)CSc2snnc2-c2ccc(Br)cc2Br)cc1
2. O=C(CSc1snnc1-c1ccc(Br)cc1Br)Nc1cccnc1Cl
3. CC(=O)c1ccc(NC(=O)CSc2snnc2-c2ccc(Br)cc2Br)c(Br)c1
4. O=C(CSc1snnc1-c1ccc(Br)cc1Br)Nc1ccccc1[N+](=O)[O-]
5. O=C(CSc1snnc1-c1ccc(Br)cc1Br)Nc1ccccn1
6. Cc1ccc2sc(NC(=O)CSc3snnc3-c3ccc(Br)cc3Br)nc2c1
7. O=C(CSc1snnc1-c1ccc(Br)cc1Br)Nc1ccc(Cl)cc1

// result
< 1
≥ 1
≥ 1
≥ 1
< 1
< 1
< 1

Below are 2 compounds. Give each one its selectivity ratio.
1. Cc1ccc(NC(=O)CSc2snnc2-c2ccc(Br)cc2Br)c([N+](=O)[O-])c1
2. Cc1cccc(NC(=O)CSc2snnc2-c2ccc(Br)cc2Br)c1C

// result
1. ≥ 1
2. < 1

====

test: Cytotoxicity against human MT4 cells after 5 days by MTT assay; type: cell-based
PROPERTY_MEASURED: CC50 at 120 h

See these solved cases before continuing.
Cc1ccc(NC(=O)CSc2snnc2-c2ccc(Br)cc2Br)c([N+](=O)[O-])c1; > 230 µM
Cc1ccc(NC(=O)CSc2snnc2-c2ccc(Br)cc2Br)c(Br)c1; > 216 µM
Cc1cccc(NC(=O)CSc2snnc2-c2ccc(Br)cc2Br)c1C; 241 µM

# input for lookup
CC50 at 120 h reported for this compound O=C(CSc1snnc1-c1ccc(Br)cc1Br)Nc1ccccc1Br : > 222 µM
